// data source = patent US4735792A

Assay: Tissue distribution of radioactivity after intravenous administration in rats
Type: in vivo, female Fischer 344 rats (printed "femal Fischer 344 rats")
Conditions: rat, heart, iv, Table 1; heart; 60 min after i.v. injection; read-out: Mean percent injected dose/gm, Heart
OBSERVED_PROPERTY: tissue uptake at 1 h (%ID/g)
Give the quantity in %ID/g, number only.

Lab note: measured tissue uptake at 1 h of O=C1C=CC(=O)N1c1ccc([125I])cc1 [[^125 I]4, N-(p-[^125 I]iodophenyl)maleimide] was 1.74

====

Assay: Tissue distribution of radioactivity after intravenous administration in rats
Assay type: in vivo, female Fischer 344 rats (printed "femal Fischer 344 rats")
Details: rat, thyroid, iv, Table 1; thyroid; 5 min after i.v. injection; read-out: Mean percent injected dose/gm, Thyroid
OBSERVED_PROPERTY: tissue uptake at 5 min (%ID/g)
Give the quantity in %ID/g, number only.

Lab note: measured tissue uptake at 5 min of O=C1C=CC(=O)N1c1ccc([125I])cc1 [[^125 I]4, N-(p-[^125 I]iodophenyl)maleimide] was 13.7

====

Assay: Tissue distribution of radioactivity after intravenous administration in rats
Format: in vivo, female Fischer 344 rats (printed "femal Fischer 344 rats")
Settings: rat, thyroid, iv, Table 2; thyroid; 60 min after i.v. injection; read-out: Mean percent injected dose/gm, Thyroid
OBSERVED_PROPERTY: tissue uptake at 1 h (%ID/g)
Give the quantity in %ID/g, number only.

Lab note: measured tissue uptake at 1 h of O=C1C=CC(=O)N1c1ccc([125I])cc1 [[^125 I]4, N-(p-[^125 I]iodophenyl)maleimide] was 0.19

====

Assay: Tissue distribution of radioactivity after intravenous administration in rats
Assay type: in vivo, female Fischer 344 rats (printed "femal Fischer 344 rats")
Conditions: rat, lungs, iv, Table 2; lungs; 5 min after i.v. injection; read-out: Mean percent injected dose/gm, Lungs
OBSERVED_PROPERTY: tissue uptake at 5 min (%ID/g)
Give the quantity in %ID/g, number only.

Lab note: measured tissue uptake at 5 min of O=C1C=CC(=O)N1c1ccc([125I])cc1 [[^125 I]4, N-(p-[^125 I]iodophenyl)maleimide] was 1.76

====

Assay: Tissue distribution of radioactivity after intravenous administration in rats
Assay type: in vivo, female Fischer 344 rats (printed "femal Fischer 344 rats")
Conditions: rat, liver, iv, Table 2; liver; 5 min after i.v. injection; read-out: Mean percent injected dose/gm, Liver
OBSERVED_PROPERTY: tissue uptake at 5 min (%ID/g)
Give the quantity in %ID/g, number only.

Lab note: measured tissue uptake at 5 min of O=C1C=CC(=O)N1c1ccc([125I])cc1 [[^125 I]4, N-(p-[^125 I]iodophenyl)maleimide] was 10.2

====

Assay: Tissue distribution of radioactivity after intravenous administration in rats
Assay type: in vivo, female Fischer 344 rats (printed "femal Fischer 344 rats")
Details: rat, blood, iv, Table 2; blood; 5 min after i.v. injection; read-out: Mean percent injected dose/gm, Blood
OBSERVED_PROPERTY: tissue uptake at 5 min (%ID/g)
Give the quantity in %ID/g, number only.

Lab note: measured tissue uptake at 5 min of O=C1C=CC(=O)N1c1ccc([125I])cc1 [[^125 I]4, N-(p-[^125 I]iodophenyl)maleimide] was 57.6

====

Assay: Tissue distribution of radioactivity after intravenous administration in rats
Type: in vivo, female Fischer 344 rats (printed "femal Fischer 344 rats")
Settings: rat, heart, iv, Table 2; heart; 60 min after i.v. injection; read-out: Mean percent injected dose/gm, Heart
OBSERVED_PROPERTY: tissue uptake at 1 h (%ID/g)
Give the quantity in %ID/g, number only.

Lab note: measured tissue uptake at 1 h of O=C1C=CC(=O)N1c1ccc([125I])cc1 [[^125 I]4, N-(p-[^125 I]iodophenyl)maleimide] was 0.74

====

Assay: Tissue distribution of radioactivity after intravenous administration in rats
Format: in vivo, female Fischer 344 rats (printed "femal Fischer 344 rats")
Settings: rat, lungs, iv, Table 1; lungs; 60 min after i.v. injection; read-out: Mean percent injected dose/gm, Lungs
OBSERVED_PROPERTY: tissue uptake at 1 h

Lab note: measured tissue uptake at 1 h of O=C1C=CC(=O)N1c1ccc([125I])cc1 [[^125 I]4, N-(p-[^125 I]iodophenyl)maleimide] was 2.31 %ID/g

====

Assay: Tissue distribution of radioactivity after intravenous administration in rats
Assay type: in vivo, female Fischer 344 rats (printed "femal Fischer 344 rats")
Conditions: rat, thyroid, iv, Table 2; thyroid; 5 min after i.v. injection; read-out: Mean percent injected dose/gm, Thyroid
OBSERVED_PROPERTY: tissue uptake at 5 min (%ID/g)
Give the quantity in %ID/g, number only.

Lab note: measured tissue uptake at 5 min of O=C1C=CC(=O)N1c1ccc([125I])cc1 [[^125 I]4, N-(p-[^125 I]iodophenyl)maleimide] was 0.13

====

Assay: Tissue distribution of radioactivity after intravenous administration in rats
Format: in vivo, female Fischer 344 rats (printed "femal Fischer 344 rats")
Settings: rat, liver, iv, Table 1; liver; 5 min after i.v. injection; read-out: Mean percent injected dose/gm, Liver
Description: 4-[^125 I]iodoaniline (7.4 mCi sp. act. 700 mCi/mmol) prepared following structure described in Step 1 of Example 1 was coupled with maleic anhydride (9.5 mg) in glacial acetic acid (0.15 ml) at room temperature. The radioiodinated compound, [^125 I]3 isolated by silica gel column chromatography was refluxed with acetic anhydride The distribution of radiactivity in tissues of femal Fischer 344 rats […] The distribution of radioactivity in tissues of femal Fischer 344 rats […]
OBSERVED_PROPERTY: tissue uptake at 5 min (%ID/g)
Give the quantity in %ID/g, number only.

Lab note: measured tissue uptake at 5 min of O=C1C=CC(=O)N1c1ccc([125I])cc1 [[^125 I]4, N-(p-[^125 I]iodophenyl)maleimide] was 1.9

====

Assay: Tissue distribution of radioactivity after intravenous administration in rats
Type: in vivo, female Fischer 344 rats (printed "femal Fischer 344 rats")
Settings: rat, thyroid, iv, Table 2; thyroid; 30 min after i.v. injection; read-out: Mean percent injected dose/gm, Thyroid
OBSERVED_PROPERTY: tissue uptake at 0.5 h (%ID/g)
Give the quantity in %ID/g, number only.

Lab note: measured tissue uptake at 0.5 h of O=C1C=CC(=O)N1c1ccc([125I])cc1 [[^125 I]4, N-(p-[^125 I]iodophenyl)maleimide] was 0.2

====

Experiment: Tissue distribution of radioactivity after intravenous administration in rats
Type: in vivo, female Fischer 344 rats (printed "femal Fischer 344 rats")
Settings: rat, liver, iv, Table 2; liver; 60 min after i.v. injection; read-out: Mean percent injected dose/gm, Liver
OBSERVED_PROPERTY: tissue uptake at 1 h (%ID/g)
Give the quantity in %ID/g, number only.

Lab note: measured tissue uptake at 1 h of O=C1C=CC(=O)N1c1ccc([125I])cc1 [[^125 I]4, N-(p-[^125 I]iodophenyl)maleimide] was 7.05
